- SUBJECT OF TEST: BIR3 domain of rat XIAP (Rattus norvegicus, UniProt Q9R0I6)
- Sequence (Q9R0I6 241-355): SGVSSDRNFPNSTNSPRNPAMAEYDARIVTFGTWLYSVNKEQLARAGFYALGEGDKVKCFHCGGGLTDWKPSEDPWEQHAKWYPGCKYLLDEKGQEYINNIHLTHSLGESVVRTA
- ASSAY PROCEDURE: Fluorescence polarization assay, binding to BIR3 from rat XIAP
Examples of compounds with documented EC50 follow.
ASSAY METRIC: EC50

COMPOUND	RECORDED MEASUREMENT
CNC(C)C(=O)NC(C(=O)NC(CCCCNC(=O)OCc1ccccc1Cl)C(=O)NC1CCCc2ccccc21)C(C)C (stereo not shown)	< 1 µM
CNC(C)C(=O)NC(C(=O)N1CSCC1C(=O)NN(c1ccccc1)c1ccccc1)C(C)C (stereo not shown)	< 1 µM
CNC(C)C(=O)NC(C(=O)NC(CCCCNS(=O)(=O)Cc1ccccc1)C(=O)NC1CCCc2ccccc21)C(C)C (stereo not shown)	< 1 µM
CNC(C)C(=O)NC(C(=O)N1CSCC1C(=O)NN(Cc1ccccc1)Cc1ccccc1)C(C)C (stereo not shown)	< 1 µM

---

- SUBJECT OF TEST: BIR3 domain of rat XIAP (Rattus norvegicus, UniProt Q9R0I6)
- ASSAY PROCEDURE: Fluorescence polarization assay, binding to BIR3 from rat XIAP

COMPOUND	SUBJECT OF TEST	EC50
CN[C@@H](C)C(=O)N[C@H]1CCCN2CC[C@@H](C(=O)N[C@@H]3CCCc4ccccc43)N2C1=O	BIR3 domain of rat XIAP (Rattus norvegicus, UniProt Q9R0I6)	< 1000 nM
CNC(C)C(=O)NC(C(=O)NC(CCN)C(=O)NC1CCCc2ccccc21)C(C)C (centres unmarked)	BIR3 domain of rat XIAP (Rattus norvegicus, UniProt Q9R0I6)	< 1000 nM
CNC(C)C(=O)NC1CCc2cccc3c2N(C1=O)C(C(=O)NC1CCCc2ccccc21)C3 (centres unmarked)	BIR3 domain of rat XIAP (Rattus norvegicus, UniProt Q9R0I6)	< 1000 nM
CNC(C)C(=O)NC(C(=O)N1Cc2ccccc2CC1C(=O)NC(Cc1ccccc1)Cc1ccccc1)C(C)C (centres unmarked)	BIR3 domain of rat XIAP (Rattus norvegicus, UniProt Q9R0I6)	< 1000 nM
CNC(C)C(=O)NC(C(=O)N1CCCC1C(=O)NN(C)c1ccccc1)C(C)(C)C (centres unmarked)	BIR3 domain of rat XIAP (Rattus norvegicus, UniProt Q9R0I6)	< 1000 nM
CNC(C)C(=O)NC(C(=O)NC(CCCCNS(=O)(=O)C(F)(F)F)C(=O)NC1CCCc2ccccc21)C(C)C (centres unmarked)	BIR3 domain of rat XIAP (Rattus norvegicus, UniProt Q9R0I6)	< 1000 nM
CNC(C)C(=O)NC(C(=O)NC(C(=O)NC1CCCc2ccccc21)c1ccccc1)C(C)C (centres unmarked)	BIR3 domain of rat XIAP (Rattus norvegicus, UniProt Q9R0I6)	< 1000 nM
CNC(C)C(=O)NC(C(=O)NC(CCO)C(=O)NC1CCCc2ccccc21)C(C)C (centres unmarked)	BIR3 domain of rat XIAP (Rattus norvegicus, UniProt Q9R0I6)	< 1000 nM
CCCCC(NC(=O)C(NC(=O)C(C)NC)C(C)C)C(=O)NC1CCCc2ccccc21 (centres unmarked)	BIR3 domain of rat XIAP (Rattus norvegicus, UniProt Q9R0I6)	< 1000 nM
CNC(C)C(=O)NC(C(=O)N1CSCC1C(=O)NC(Cc1ccccc1)Cc1ccccc1)C(C)C (centres unmarked)	BIR3 domain of rat XIAP (Rattus norvegicus, UniProt Q9R0I6)	< 1000 nM
CNC(C)C(=O)NC(C(=O)N1CCCC1C(=O)NCCC(c1ccccc1)c1ccccc1)C(C)(C)C (centres unmarked)	BIR3 domain of rat XIAP (Rattus norvegicus, UniProt Q9R0I6)	1000 to 10000 nM
CNC(C)C(=O)NC(C(=O)N1Cc2ccccc2CC1C(=O)NC1CCCc2ccccc21)C(C)C (centres unmarked)	BIR3 domain of rat XIAP (Rattus norvegicus, UniProt Q9R0I6)	< 1000 nM
CNC(C)C(=O)NC(C(=O)NCC(=O)NC1CCCc2ccccc21)C(C)C (centres unmarked)	BIR3 domain of rat XIAP (Rattus norvegicus, UniProt Q9R0I6)	1000 to 10000 nM
CNC(C)C(=O)NC(C(=O)N1CSCC1C(=O)NC1CCCc2ccccc21)C(C)C (centres unmarked)	BIR3 domain of rat XIAP (Rattus norvegicus, UniProt Q9R0I6)	< 1000 nM
CCCCN(CCCC)CCCCC(NC(=O)C(NC(=O)C(C)NC)C(C)C)C(=O)NC1CCCc2ccccc21 (centres unmarked)	BIR3 domain of rat XIAP (Rattus norvegicus, UniProt Q9R0I6)	< 1000 nM
CNC(C)C(=O)NC(C(=O)N(CCCCCNC(=O)OCc1ccccc1)CC(=O)NC1CCCc2ccccc21)C(C)C (centres unmarked)	BIR3 domain of rat XIAP (Rattus norvegicus, UniProt Q9R0I6)	< 1000 nM
CCCCS(=O)(=O)NCCCCC(NC(=O)C(NC(=O)C(C)NC)C(C)C)C(=O)NC1CCCc2ccccc21 (centres unmarked)	BIR3 domain of rat XIAP (Rattus norvegicus, UniProt Q9R0I6)	< 1000 nM
CNC(C)C(=O)NC(C(=O)NC(Cc1ccccc1)C(=O)NC1CCCc2ccccc21)C(C)C (centres unmarked)	BIR3 domain of rat XIAP (Rattus norvegicus, UniProt Q9R0I6)	1000 to 10000 nM
CNC(C)C(=O)NC(C(=O)N1Cc2ccccc2CC1C(=O)NC(c1ccccc1)c1ccccc1)C(C)C (centres unmarked)	BIR3 domain of rat XIAP (Rattus norvegicus, UniProt Q9R0I6)	< 1000 nM
CNC(C)C(=O)NC(C(=O)N1C(C(=O)NC2CCCc3ccccc32)CC2CCCCC21)C(C)C (centres unmarked)	BIR3 domain of rat XIAP (Rattus norvegicus, UniProt Q9R0I6)	< 1000 nM
CNC(C)C(=O)NC1CCC(=O)N2CCC(C(=O)NC3CCCc4ccccc43)N2C1=O (centres unmarked)	BIR3 domain of rat XIAP (Rattus norvegicus, UniProt Q9R0I6)	< 1000 nM
CNC(C)C(=O)NC(C(=O)N1Cc2ccccc2CC1C(=O)NN(c1ccccc1)c1ccccc1)C(C)C (centres unmarked)	BIR3 domain of rat XIAP (Rattus norvegicus, UniProt Q9R0I6)	> 10000 nM
CNC(C)C(=O)NC(CCCCNC(=O)OCC1c2ccccc2-c2ccccc21)C(=O)N1CSCC1C(=O)NC1CCCc2ccccc21 (centres unmarked)	BIR3 domain of rat XIAP (Rattus norvegicus, UniProt Q9R0I6)	< 1000 nM
CNC(C)C(=O)NC(C(=O)N1CCSCC1C(=O)NC1CCCc2ccccc21)C(C)C (centres unmarked)	BIR3 domain of rat XIAP (Rattus norvegicus, UniProt Q9R0I6)	< 1000 nM
CNC(C)C(=O)NC(C(=O)NC(CC(=O)OCc1ccccc1)C(=O)NC1CCCc2ccccc21)C(C)C (centres unmarked)	BIR3 domain of rat XIAP (Rattus norvegicus, UniProt Q9R0I6)	< 1000 nM
CNC(C)C(=O)NC(C(=O)NC(CCC(=O)OCc1ccccc1)C(=O)NC1CCCc2ccccc21)C(C)C (centres unmarked)	BIR3 domain of rat XIAP (Rattus norvegicus, UniProt Q9R0I6)	< 1000 nM

---

- SUBJECT OF TEST: BIR3-mediated Caspase-9 inhibition (UniProt Q9R0I6)
- Construct: Nothing is printed for this assay
- ASSAY PROCEDURE: Caspase-9 rescue assay (relief of BIR3-mediated Caspase-9 inhibition)
- CONDITION SET: average EC50, substrate Ac-LEHD-amc, pH 6.5
pEC50: −log10 of the molar value.
ASSAY METRIC: pEC50

COMPOUND	ASSAY METRIC	RECORDED MEASUREMENT
CC(NCC1CC1)C(=O)NC(C(=O)N1CCCC1C(=O)NC1CCCc2ccccc21)C(C)(C)C (stereo not drawn)	pEC50	5.00 to 6.00
CNC(C)C(=O)NC(C(=O)N1CCCC1C(=O)NN(C)c1ccccc1)C(C)(C)C (stereo not drawn)	pEC50	5.00 to 6.00
CNC(C)C(=O)NC(C(=O)NC(CCNC(=O)OCc1ccccc1)C(=O)NC1CCCc2ccccc21)C(C)C (stereo not drawn)	pEC50	5.00 to 6.00
CNC(C)C(=O)NC(C(=O)N1CCSC1C(=O)NC1CCCc2ccccc21)C(C)C (stereo not drawn)	pEC50	> 6.00
CNC(C)C(=O)NC(C(=O)NC(C(=O)NC1CCCc2ccccc21)c1ccccc1)C(C)C (stereo not drawn)	pEC50	> 6.00
CNC(C)C(=O)NC(C(=O)NC(CCOCc1ccccc1)C(=O)NC1CCCc2ccccc21)C(C)C (stereo not drawn)	pEC50	5.00 to 6.00

---

- SUBJECT OF TEST: BIR3-mediated Caspase-9 inhibition (UniProt Q9R0I6)
- Construct: Nothing is printed for this assay
- ASSAY PROCEDURE: Caspase-9 rescue assay (relief of BIR3-mediated Caspase-9 inhibition)
- CONDITION SET: average EC50, substrate Ac-LEHD-amc, pH 6.5
pEC50: −log10 of the molar value. Counter-ions that a name gives are not always drawn.
Examples of molecules with documented pEC50 follow.

MOLECULE	pEC50
CNC(C)C(=O)NC(C(=O)NC(CCCCNC(=O)OCc1ccccc1Cl)C(=O)NC1CCCc2ccccc21)C(C)C (stereo not drawn)	> 6.00
CCCCN(CCCC)CCCCC(NC(=O)C(NC(=O)C(C)NC)C(C)C)C(=O)NC1CCCc2ccccc21 (stereo not drawn)	> 6.00
CNC(C)C(=O)NC(C(=O)N1CSCC1C(=O)NC(c1ccccc1)c1ccccc1)C(C)C (stereo not drawn)	> 6.00
CNC(C)C(=O)NC1CCC(=O)N2CCC(C(=O)NC3CCCc4ccccc43)N2C1=O (stereo not drawn)	5.00 to 6.00
CCCCCN1C(=O)CCC(NC(=O)C(C)NC)C(=O)N1CC(=O)NC1CCCc2ccccc21 (stereo not drawn)	< 5.00
CNC(C)C(=O)NC(C(=O)N(CCc1ccccc1)CC(=O)NC1CCCc2ccccc21)C(C)(C)C (stereo not drawn) [TFA salt]	< 5.00
CNC(C)C(=O)NC(C(=O)NC(COCc1ccccc1)C(=O)NC1CCCc2ccccc21)C(C)C (stereo not drawn)	5.00 to 6.00
CN[C@@H](C)C(=O)N[C@H](C(=O)N[C@@H](CCCCNS(=O)(=O)c1ccc(C)cc1)C(=O)NC1CCCc2ccccc21)C(C)C (stereo in doubt)	> 6.00
CNC(C)C(=O)NC(C(=O)NC(CCCCN(C)C)C(=O)NC1CCCc2ccccc21)C(C)C (stereo not drawn)	> 6.00
CNC(C)C(=O)NC(C(=O)N1CSC(C)(C)C1C(=O)NC1CCCc2ccccc21)C(C)C (stereo not drawn)	> 6.00
CNC(C)C(=O)NC(C(=O)N1CSCC1C(=O)NC(Cc1ccccc1)Cc1ccccc1)C(C)C (stereo not drawn)	> 6.00
CNC(C)C(=O)NC(C(=O)N1C(C(=O)NC2CCCc3ccccc32)CC2CCCCC21)C(C)C (stereo not drawn)	> 6.00
CN[C@@H](C)C(=O)N[C@H](C(=O)N1COC[C@H]1C(=O)N[C@@H]1CCCc2ccccc21)C(C)C	> 6.00
CN[C@@H](C)C(=O)N[C@H](C(=O)N(C)[C@@H](CCCNC(=N)NS(=O)(=O)c1ccc(C)cc1)C(=O)N[C@@H]1CCCc2ccccc21)C(C)C	> 6.00
CNC(C)C(=O)NC(C(=O)NC(Cc1ccccc1)C(=O)NC1CCCc2ccccc21)C(C)C (stereo not drawn)	< 5.00
CNC(C)C(=O)NC(C(=O)N1CCSCC1C(=O)NC1CCCc2ccccc21)C(C)C (stereo not drawn)	5.00 to 6.00
CNC(C)C(=O)NC(C(=O)N1CS(=O)(=O)CC1C(=O)NC1CCCc2ccccc21)C(C)C (stereo not drawn)	> 6.00
CNC(C)C(=O)NC(C(=O)NCC(=O)NC1CCCc2ccccc21)C(C)C (stereo not drawn)	5.00 to 6.00
